The reader will find reported pEC50 values listed item by item below.
Biological target: T1, Peptide-3 (cysteine pairing not given here; also: biotinylated, site not given here)
T1 peptide: IDFCMLYNWPICAG
Experiment: ELISA, Fab on captured biotin-peptide
Where no end group is shown, it is not given here.
In plain terms, pEC50 is the concentration in mol/L turned into minus its base-10 logarithm.

BINDER: TBD-22 (HC D109A) (Fab, V domains shown, Fab; also called HC D109A mutant) VH: QVQLQQSGSELKKPGASVKVSCKASGYTFTNYGMNWVKQAPGQGLKWMGWINTYTGEPTYTDDFKGRFAFSLDTSVSTAYLQISSLKADDTAVYFCARGGFGSSYWYFAVWGQGSLVTVSS VL: DIQLTQSPSSLSASVGDRVSITCKASQDVSIAVAWYQQKPGKAPKLLIYSASYRYTGVPDRFSGSGSGTDFTLTISSLQPEDFAVYYCQQHYITPLTFGAGTKVEIKR
RECORDED_MEASUREMENT: 8.80

Read the next record carefully.
Ask: Request the reported pEC50 associated with TBD-6 (LC I93A) (Fab, V domains shown, Fab; also called LC I93A mutant) VH: QVQLQQSGSELKKPGASVKVSCKASGYTFTNYGMNWVKQAPGQGLKWMGWINTYTGEPTYTDDFKGRFAFSLDTSVSTAYLQISSLKADDTAVYFCARGGFGSSYWYFDVWGQGSLVTVSS VL: DIQLTQSPSSLSASVGDRVSITCKASQDVSIAVAWYQQKPGKAPKLLIYSASYRYTGVPDRFSGSGSGTDFTLTISSLQPEDFAVYYCQQHYATPLTFGAGTKVEIKR
Reply: 7.94
